- System Name: human serum albumin (Homo sapiens, UniProt P02768)
- Sequence (P02768 25-609): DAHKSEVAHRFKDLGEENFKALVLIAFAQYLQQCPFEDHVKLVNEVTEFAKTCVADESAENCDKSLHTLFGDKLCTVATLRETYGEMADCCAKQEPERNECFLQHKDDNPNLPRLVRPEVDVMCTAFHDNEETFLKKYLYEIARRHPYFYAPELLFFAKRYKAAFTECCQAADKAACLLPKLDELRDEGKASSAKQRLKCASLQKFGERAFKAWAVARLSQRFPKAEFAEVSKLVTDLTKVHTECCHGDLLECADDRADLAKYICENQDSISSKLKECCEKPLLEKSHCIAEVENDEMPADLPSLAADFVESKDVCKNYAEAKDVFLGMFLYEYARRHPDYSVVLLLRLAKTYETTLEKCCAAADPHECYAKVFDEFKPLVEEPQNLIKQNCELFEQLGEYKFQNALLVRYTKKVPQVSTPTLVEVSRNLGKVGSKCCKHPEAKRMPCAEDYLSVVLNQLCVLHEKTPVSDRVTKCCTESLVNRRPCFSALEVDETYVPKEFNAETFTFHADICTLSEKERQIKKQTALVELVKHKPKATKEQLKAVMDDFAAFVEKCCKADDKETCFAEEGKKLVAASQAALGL
- Experiment Description: Binding to human serum albumin, fluorescence quenching titration
- Condition Label: 25° C., pH 7.4, read-out: Dissociation constant (Kd) for binding to human serum albumin
Measurement Label: Kd (nM)

>  <Molecule>
Cc1ccc2c(C(=O)O)c(O)c(O)c(C(C)C)c2c1 [DHGA]

>  <System Name>
human serum albumin (Homo sapiens, UniProt P02768)

>  <Observed Value>
5280

$$$$
>  <Molecule>
Cc1cc2c(C(C)C)c(O)c(O)c3c2c(c1-c1c(C)cc2c(C(C)C)c(O)c(O)c4c2c1OC4=N)OC3=N [GIL, reference compound]

>  <System Name>
human serum albumin (Homo sapiens, UniProt P02768)

>  <Observed Value>
3000

$$$$
>  <Molecule>
Cc1ccc2c(C=O)c(O)c(O)c(C(C)C)c2c1 [DHG]

>  <System Name>
human serum albumin (Homo sapiens, UniProt P02768)

>  <Observed Value>
660

$$$$
>  <Molecule>
Cc1cc2c(C(C)C)c(O)c(O)c(C=O)c2cc1-c1cc2c(C=O)c(O)c(O)c(C(C)C)c2cc1C [BDG]

>  <System Name>
human serum albumin (Homo sapiens, UniProt P02768)

>  <Observed Value>
1200

$$$$
>  <Molecule>
Cc1cc2c(C(C)C)c(O)c(O)c(C(=O)O)c2cc1-c1cc2c(C(=O)O)c(O)c(O)c(C(C)C)c2cc1C [BDGA]

>  <System Name>
human serum albumin (Homo sapiens, UniProt P02768)

>  <Observed Value>
1500

$$$$

* * *

- System: H9/HIV-IIIB strain of the HIV-1 virus
- Experiment Description: Inhibition of HIV replication, focal immunoassay (foci reduction) in HT46c cells
- Format: cell-based
- Condition Label: Human immunodeficiency virus 1, 72 h; H9/HIV-IIIB in HT46c cells, 3 days at 37° C.
Measurement Label: EC50

>  <Molecule>
Cc1cc2c(C(C)C)c(O)c(O)c(C(=O)O)c2cc1-c1cc2c(C(=O)O)c(O)c(O)c(C(C)C)c2cc1C [BDGA]

>  <Observed Value>
< 1 µM

$$$$
>  <Molecule>
Cc1cc2c(C(C)C)c(O)c(O)c3c2c(c1-c1c(C)cc2c(C(C)C)c(O)c(O)c4c2c1OC4=N)OC3=N [GIL, reference compound]

>  <Observed Value>
< 1 µM

$$$$

* * *

- Experiment Description: Cytotoxicity: changes in cell morphology or loss of monolayer adherence in HT46c cells
- Format: cell-based
- Condition Label: human, ht46c cells; 5 μM; read-out: cell monolayer destroyed
Measurement Label: cytotoxicity at 5 µM

>  <Smiles Input>
Cc1cc2c(C(C)C)c(O)c(O)c(C=O)c2cc1-c1cc2c(C=O)c(O)c(O)c(C(C)C)c2cc1C

>  <Measurement Label>
cytotoxicity at 5 µM

>  <Observed Value>
> 80%

$$$$
